Every entry's value here was drawn from the supplement of paper PMC6555819.

Test system: RARb homodimer (NR concentration 270 nM)
test-details: PBM binding z-score (relative to random genomic background probes); higher = stronger binding; sequences stand for … in GC…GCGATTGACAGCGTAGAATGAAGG
readout-name: PBM binding z-score

Reference set, count: 6
ATATGTAGGTCAAGGGTCATTCAGGTTGGTTCGC :: 5.1
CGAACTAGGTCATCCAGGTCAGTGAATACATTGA :: 4.14
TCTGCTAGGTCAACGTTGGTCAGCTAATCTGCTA :: 3.31
ACTTAAGGGTCAACGAGGTTATAGCACGCGTATA :: 4.31
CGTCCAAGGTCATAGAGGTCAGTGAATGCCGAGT :: 5.34
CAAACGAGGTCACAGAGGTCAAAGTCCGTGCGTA :: 5.83

Exercise: Identify the reported PBM binding z-score for the following entry. "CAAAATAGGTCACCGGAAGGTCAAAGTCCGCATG"
Solution: 5.89

Exercise: Supply recorded PBM binding z-score for "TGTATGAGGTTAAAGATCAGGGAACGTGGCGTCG" here.
Solution: 1.35

Exercise: Give me measured PBM binding z-score, please, for this sequence: "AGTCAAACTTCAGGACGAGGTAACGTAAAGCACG"
Solution: 0.304

Exercise: Check the records and state PBM binding z-score for "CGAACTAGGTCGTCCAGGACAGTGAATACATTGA"
Solution: 0.392

Exercise: Please give the documented PBM binding z-score of "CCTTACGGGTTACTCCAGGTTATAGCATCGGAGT"
Solution: 0.561
